Data provenance is patent US6407247B1.

Can you tell me λmax for the items I'm about to list?
experiment: UV absorption of the compounds of Table 2 (absorption maximum and specific extinction); format: physicochemical; parameters: unit not given beside the values; details: UV absorption maximum, Table 2
Could you respond with only the numeric value?

QUERY: Param item = `CCCc1ccc(NC=C(C#N)C(=O)C(C)(C)C)cc1` ; retrieve measured λmax.
RESULT: 342

QUERY: Entry `CC(C)(C)C(=O)C(C#N)=CNc1ccccc1C(=O)O.OCCN(CCO)CCO` please
RESULT: 346

QUERY: Entry CCCCC(CC)COC(=O)c1ccccc1NC=C1CCC(C)(C)CC1=O (centres unmarked) please
RESULT: 358

QUERY: Entry `Cc1cccc(NC=C(C#N)C(=O)C(C)(C)C)c1` please
RESULT: 338

QUERY: Entry CCCCC(CC)COC(=O)c1ccccc1NC=C(C#N)C(=O)C(C)(C)C (centres unmarked) please
RESULT: 348

----------
experiment: UV absorption of the compounds of Table 2 (absorption maximum and specific extinction); assay type: physicochemical; design: unit not given beside the values; conditions: UV absorption maximum, Table 2
Can you tell me λmax for the items I'm about to list?
Could you respond with only the numeric value?

QUERY: Param item = CCCCC(CC)COC(=O)c1ccc(NC=C(C#N)C(=O)c2ccccc2)cc1 (centres unmarked) [Compound 43] ; retrieve measured λmax.
RESULT: 362

QUERY: Entry CCCCC(CC)COC(=O)c1ccc(NC=C2C(=O)c3ccccc3C2=O)cc1 (centres unmarked) [Compound 42] please
RESULT: 374

QUERY: Entry CCCCC(CC)COC(=O)C(C#N)=CNc1cc(OC)ccc1OC (centres unmarked) [Compound 33] please
RESULT: 350

QUERY: Entry CC(C)c1ccc(NC=C(C#N)C(=O)C(C)(C)C)cc1 [Compound 7] please
RESULT: 342

QUERY: Entry CCCCc1ccc(NC=C(C#N)C(=O)C(C)(C)C)cc1 [Compound 5] please
RESULT: 342

QUERY: Entry CCCCC(CC)COC(=O)c1ccc(NC=C(C#N)C#N)cc1 (centres unmarked) [Compound 41] please
RESULT: 330

QUERY: Entry CC(C)(C)C(=O)C(C#N)=CNc1ccc(S(=O)(=O)O)cc1.OCCN(CCO)CCO [Compound 16] please
RESULT: 340

QUERY: Entry CCCCC(CC)COC(=O)c1ccc(NC=C(C(C)=O)C(=O)OC)cc1 (centres unmarked) [Compound 29] please
RESULT: 346

QUERY: Entry CCOc1ccccc1NC=C(C#N)C(=O)C(C)(C)C [Compound 18] please
RESULT: 352

QUERY: Entry CC(C)(C)C(=O)C(C#N)=CNc1ccc(C(C)(C)C)cc1 [Compound 4] please
RESULT: 342

QUERY: Entry CCCCC(CC)COC(=O)c1ccc(NC=C(C(C)=O)C(C)=O)cc1 (centres unmarked) [Compound 27] please
RESULT: 346

QUERY: Entry CC(C)(C)C(=O)C(C#N)=CNc1ccccc1C(=O)O [Compound 15] please
RESULT: 346

QUERY: Entry CCCCOC(=O)c1ccccc1NC=C(C#N)C(=O)C(C)(C)C [Compound 21] please
RESULT: 346

QUERY: Entry COC(=O)c1ccccc1NC=C(C#N)C(=O)C(C)(C)C [Compound 19] please
RESULT: 348

QUERY: Entry CCCCC(CC)COC(=O)C(C#N)=CNc1ccccc1C(=O)OC (centres unmarked) [Compound 36] please
RESULT: 336

QUERY: Entry CCCCC(CC)COC(=O)C(C#N)=CNc1ccc(C(=O)OCC)cc1 (centres unmarked) [Compound 35] please
RESULT: 332

QUERY: Entry CC(C)(C)C(=O)C(C#N)=CNc1ccccc1C#N [Compound 10] please
RESULT: 338

QUERY: Entry CCCCC(CC)COC(=O)c1ccc(NC=C2C(=O)OC(C)(C)OC2=O)cc1 (centres unmarked) [Compound 44] please
RESULT: 336

QUERY: Entry COc1ccc(NC=C(C#N)C(=O)C(C)(C)C)cc1 [Compound 3] please
RESULT: 348

QUERY: Entry CCCCC(CC)COC(=O)c1ccccc1NC=C(C(C)=O)C(=O)CC (centres unmarked) [Compound 28] please
RESULT: 346

QUERY: Entry CC(C)Oc1cccc(NC=C(C#N)C(=O)C(C)(C)C)c1 [Compound 12] please
RESULT: 340

QUERY: Entry COc1ccc(OC)c(NC=C(C#N)C(=O)C(C)(C)C)c1 [Compound 14] please
RESULT: 362

QUERY: Entry CCCCOC(=O)c1ccccc1NC=C(C(C)=O)C(C)=O [Compound 25] please
RESULT: 344

QUERY: Entry COC(=O)/C(=C\Nc1ccccc1C(=O)OC)C(C)=O [Compound 30] please
RESULT: 344

QUERY: Entry CCCCC(CC)COC(=O)c1ccc(NC=C(C(=O)OCC)C(=O)OCC)cc1 (centres unmarked) [Compound 39] please
RESULT: 320

QUERY: Entry CCCCC(CC)COC(=O)c1ccc(NC=C(C#N)C(=O)C(C)(C)C)cc1 (centres unmarked) [Compound 1] please
RESULT: 346

----------
experiment: UV absorption of the compounds of Table 2 (absorption maximum and specific extinction); type: physicochemical; design: unit not given beside the values; conditions: UV absorption maximum, Table 2
Can you tell me λmax for the items I'm about to list?
Could you respond with only the numeric value?

QUERY: Param item = `COc1cccc(NC=C(C(C)=O)C(C)=O)c1` ; retrieve measured λmax.
RESULT: 336

QUERY: Entry `CC(C)(C)C(=O)C(C#N)=CNc1ccc(S(=O)(=O)[O-])cc1.[Na+]` please
RESULT: 340

QUERY: Entry CCCCC(CC)COC(=O)c1ccccc1NC=C(C(C)=O)C(=O)OC(C)(C)C (stereo not drawn) please
RESULT: 344

QUERY: Entry `CCOC(=O)C(=CNc1ccccc1C(=O)OC)C(=O)OCC` please
RESULT: 336

QUERY: Entry CCCCC(CC)CNC(=O)c1ccc(NC=C(C#N)C(=O)C(C)(C)C)cc1 (stereo not drawn) please
RESULT: 346

QUERY: Entry CCCCC(CC)COC(=O)c1ccccc1NC=C(C(=O)OCC)C(=O)OCC (stereo not drawn) please
RESULT: 335

QUERY: Entry CCCCC(CC)COC(=O)C(C#N)=CNc1ccc(OC)cc1OC (stereo not drawn) please
RESULT: 346

QUERY: Entry `CC(C)COC(=O)c1ccccc1NC=C(C#N)C(=O)C(C)(C)C` please
RESULT: 348

QUERY: Entry CCCCC(CC)COC(=O)C(C#N)=CNc1cc(OC)cc(OC)c1 (stereo not drawn) please
RESULT: 322

----------
assay: UV absorption of the compounds of Table 2 (absorption maximum and specific extinction); format: physicochemical; conditions: specific extinction at λmax, Table 2
Readout Type: E^11

QUERY: Param item = CCCCC(CC)COC(=O)c1ccccc1NC=C(C(C)=O)C(=O)CC (stereo not drawn) [Compound 28] ; retrieve measured E^11.
RESULT: 757

QUERY: Entry COC(=O)/C(=C\Nc1ccccc1C(=O)OC)C(C)=O [Compound 30] please
RESULT: 1008

QUERY: Entry CCCCC(CC)CNC(=O)c1ccc(NC=C(C#N)C(=O)C(C)(C)C)cc1 (stereo not drawn) [Compound 6] please
RESULT: 773

QUERY: Entry CCCCC(CC)COC(=O)c1ccc(NC=C2C(=O)OC(C)(C)OC2=O)cc1 (stereo not drawn) [Compound 44] please
RESULT: 896

QUERY: Entry CCCCc1ccc(NC=C(C#N)C(=O)C(C)(C)C)cc1 [Compound 5] please
RESULT: 884

QUERY: Entry COC(=O)c1ccccc1NC=C(C#N)C(=O)C(C)(C)C [Compound 19] please
RESULT: 995

----------
test: UV absorption of the compounds of Table 2 (absorption maximum and specific extinction); assay type: physicochemical; conditions: specific extinction at λmax, Table 2
Readout Type: E^11
Could you respond with only the numeric value?

QUERY: Param item = Cc1cccc(NC=C(C#N)C(=O)C(C)(C)C)c1 [Compound 2] ; retrieve measured E^11.
RESULT: 978

QUERY: Entry CC(C)(C)C(=O)C(C#N)=CNc1ccccc1C#N [Compound 10] please
RESULT: 995

QUERY: Entry CCOc1ccccc1NC=C(C#N)C(=O)C(C)(C)C [Compound 18] please
RESULT: 876

QUERY: Entry CCCCC(CC)COC(=O)c1ccccc1NC=C1CCC(C)(C)CC1=O (stereo not drawn) [Compound 40] please
RESULT: 743

QUERY: Entry CCCCC(CC)COC(=O)C(C#N)=CNc1ccc(OC)cc1OC (stereo not drawn) [Compound 32] please
RESULT: 646

QUERY: Entry CCCCC(CC)COC(=O)C(C#N)=CNc1ccccc1C(=O)OC (stereo not drawn) [Compound 36] please
RESULT: 752

QUERY: Entry CCCc1ccc(NC=C(C#N)C(=O)C(C)(C)C)cc1 [Compound 8] please
RESULT: 918

QUERY: Entry CCCCC(CC)COC(=O)c1ccc(NC=C(C#N)C#N)cc1 (stereo not drawn) [Compound 41] please
RESULT: 1191

QUERY: Entry CCCCC(CC)COC(=O)c1ccc(NC=C(C(C)=O)C(C)=O)cc1 (stereo not drawn) [Compound 27] please
RESULT: 1049
